pKi data for UniProtKB P00742 follow.
Sequence (P00742 41-179 limits assumed): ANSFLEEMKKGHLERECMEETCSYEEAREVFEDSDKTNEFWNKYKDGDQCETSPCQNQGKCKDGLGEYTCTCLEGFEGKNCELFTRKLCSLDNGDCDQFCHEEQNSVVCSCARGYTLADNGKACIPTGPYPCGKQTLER
Sequence (P00742 235-488 limits assumed): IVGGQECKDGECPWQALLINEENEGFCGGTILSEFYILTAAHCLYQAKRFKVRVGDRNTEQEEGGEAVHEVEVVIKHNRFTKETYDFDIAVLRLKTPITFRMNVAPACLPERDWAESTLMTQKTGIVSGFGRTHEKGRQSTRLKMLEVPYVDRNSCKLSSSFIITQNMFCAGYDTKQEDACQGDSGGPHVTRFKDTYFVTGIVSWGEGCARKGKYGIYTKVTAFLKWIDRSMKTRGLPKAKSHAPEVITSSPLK
pKi: −log10 of the molar value.
MEASURED METRIC: pKi

N=C(N)c1cccc(CNC(=O)c2cn(Cc3cccc(C(=N)N)c3)c3ccccc23)c1
5.91
COC(=O)c1c(C(=O)NCc2cc[n+](C)cc2)n(Cc2cccc(C(=N)N)c2)c2ccccc12
6.46
N=C(N)c1cccc(Cn2c(C(=O)NC(c3ccccc3)c3ccncc3)cc3ccccc32)c1 (stereo unspecified)
5.15

a = Cc1cc(C)cc(CNC(=O)c2c(Br)c3ccccc3n2Cc2cccc(C(=N)N)c2)c1
b = COc1cccc2c1cc(C(=O)NCc1ccc(-c3cc[n+](C)cc3)cc1)n2Cc1cccc(C(=N)N)c1
I'm curious, which of these has a smaller pKi number: a or b ? Answer = label.
b
(b: 6.96, a: 7.89)
